# Test system: hepatocytes
# experiment description: RNA-seq of hepatocytes treated with Phase III failure compounds
# test parameters: gene SLC19A2; hepatocytes
Grouping by measured RNA-seq results: SLC19A2 is done with the following cut points: low range: < -0.03; mid range: ≥ -0.03 and < 0.3; high range: ≥ 0.3

INSERT INTO assay_data (compound, group) VALUES
  ('O=P(O)(NCCCl)NCCCl [Palifosfamide]', 'low range'),
  ('Cn1cc(C2=C(c3cn(C4CCN(Cc5ccccn5)CC4)c4ccccc34)C(=O)NC2=O)c2ccccc21 [Enzastaurin]', 'mid range'),
  ('Cn1cnc2c(F)c(Nc3ccc(Br)cc3Cl)c(C(=O)NOCCO)cc21 [Selumetinib]', 'mid range'),
  ('CCOC(=O)N1c2ccc(C(F)(F)F)cc2[C@@H](N(Cc2cc(C(F)(F)F)cc(C(F)(F)F)c2)C(=O)OC)C[C@H]1CC [Torcetrapib]', 'high range'),
  ('COc1cc(Nc2ncc(F)c(Nc3ccc4c(n3)N(COP(=O)(O)O)C(=O)C(C)(C)O4)n2)cc(OC)c1OC [fostamatinib]', 'mid range'),
  ('COc1cc2nccc(Oc3ccc(NC(=O)Nc4cc(C)on4)c(Cl)c3)c2cc1OC [Tivozanib]', 'low range'),
  ('CCC(CC)[C@H](NC(C)=O)[C@@H]1[C@H](O)[C@@H](C(=O)O)C[C@H]1NC(=N)N.O.O.O [peramivir (trihydrate), peramivir]', 'low range'),
  ('C=CCNC1=C2C[C@@H](C)C[C@H](OC)[C@H](O)[C@@H](C)/C=C(\C)[C@H](OC(N)=O)[C@@H](OC)/C=C\C=C(/C)C(=O)NC(=CC1=O)C2=O [17-MG (Tanespimycin), Tanespimycin]', 'high range'),
  ('CCN(CC)CCN(Cc1ccc(-c2ccc(C(F)(F)F)cc2)cc1)C(=O)Cn1c(SCc2ccc(F)cc2)nc(=O)c2c1CCC2 [Darapladib]', 'high range'),
  ('NC(=O)c1ccc(I)c([N+](=O)[O-])c1 [BSI-201]', 'mid range');
